Overview of recorded kcat for various proteins
Substrate: C=CCO[C@@H]1O[C@H](CO)[C@@H](O[C@@H]2O[C@H](CO)[C@H](O[C@H]3O[C@H](CO)[C@H](O)[C@H](O[C@@H]4O[C@H](CO)[C@H](O)[C@H](O)[C@H]4NC(C)=O)[C@H]3O)[C@H](O)[C@H]2O)[C@H](O)[C@H]1O
Assay: UDP release, Michaelis-Menten fit
Type: biochemical, Homo sapiens
Details: 10 mM UDP-sugar (UDP-Gal) fixed, 20 mM HEPES pH 7.4, 0.1 mM MnCl2
Description: UDP release, Michaelis-Menten fit on soluble β3GalT5-1 (HEK293)
Enter your answer as a number in s⁻¹; do not include the unit.

# protein, readout number
measured = [
    ("soluble β3GalT5-1 (HEK293) (Homo sapiens) (protein, soluble luminal domain N29-V310, no TM; expressed in HEK293 cells, complex-type N-glycans) NPFKEQSFVYKKDGNFLKLPDTDCRQTPPFLVLLVTSSHKQLAERMAIRQTWGKERMVKGKQLKTFFLLGTTSSAAETKEVDQESQRHGDIIQKDFLDVYYNLTLKTMMGIEWVHRFCPQAAFVMKTDSDMFINVDYLTELLLKKNRTTRFFTGFLKLNEFPIRQPFSKWFVSKSEYPWDRYPPFCSGTGYVFSGDVASQVYNVSKSVPYIKLEDVFVGLCLERLNIRLEELHSQPTFFPGGLRFSVCLFRRIVACHFIKPRTLLDYWQALENSRGEDCPPV", 0.0448),
]

Now consider a different protein.
Just so you know, measured kcat for soluble β3GalT5-1 (HEK293) (Homo sapiens; Q69M/S66A) (protein, soluble luminal domain N29-V310, no TM; expressed in HEK293 cells, complex-type N-glycans) NPFKEQSFVYKKDGNFLKLPDTDCRQTPPFLVLLVTSAHKMLAERMAIRQTWGKERMVKGKQLKTFFLLGTTSSAAETKEVDQESQRHGDIIQKDFLDVYYNLTLKTMMGIEWVHRFCPQAAFVMKTDSDMFINVDYLTELLLKKNRTTRFFTGFLKLNEFPIRQPFSKWFVSKSEYPWDRYPPFCSGTGYVFSGDVASQVYNVSKSVPYIKLEDVFVGLCLERLNIRLEELHSQPTFFPGGLRFSVCLFRRIVACHFIKPRTLLDYWQALENSRGEDCPPV came out at 0.0248
